Assay: XTT assay, cytotoxicity (cellular growth inhibition) in CEM-SS cells
Format: cell-based
Details: human
Property name: IC50 at 7 days (µM)
Note: unit µM is implicit; provide only the numeric part.

For orientation, consider the following solved cases.
| Item smiles | IC50 at 7 days, µM |
| --- | --- |
| C[C@H](NC(=O)c1ccccc1SC(=O)NCCBr)C(N)=O | 5.2 |
| CCOC(=O)CNC(=O)Sc1ccccc1C(=O)N[C@@H](C)C(N)=O | 77.6 |
| CC(C)(C)NC(=O)Sc1ccccc1C(=O)NCC(N)=O | 20 |
| CCCNC(=O)Sc1ccccc1C(=O)NCCC(N)=O | 29 |
| Cc1ccccc1C(=O)Sc1ccccc1C(=O)NCCC(N)=O | 22 |
| NS(=O)(=O)c1ccc(CNC(=O)c2ccccc2SC(=O)NCCCCl)cc1 | 9 |

Consider the compound shown here: "NC(=O)CCNC(=O)c1ccccc1SC(=O)c1ccccc1" What is its recorded IC50 at 7 days?
676

I would be grateful if you could share the reported IC50 at 7 days for "C[C@H](NC(=O)c1ccccc1SC(=O)NCCCCl)C(N)=O" .
112

What measured IC50 at 7 days goes with "COc1ccc(C(=O)Sc2ccccc2C(=O)NCCC(N)=O)cc1" ?
42

---

System: HIV-1RF
Experiment: XTT cytoprotection assay, CEM-SS cells infected with HIV-1RF
Assay type: cell-based
Details: Human immunodeficiency virus 1, 168 h, read-out: EC50 (50% cytoprotection); HIV-1RF, CEM-SS cells, seven days, XTT
# log10 of EC50 per record follows
Values below are the log10 of the recorded EC50, with nM as the unit.

| Compound | log10 of EC50 |
| --- | --- |
| Cc1ccc(C(=O)Sc2ccccc2C(=O)NCCC(N)=O)cc1 [Compound 21] | 3.72 |
| NC(=O)CNC(=O)c1ccccc1SC(=O)OCCCCCl [Compound 80] | 3.49 |
| CCNC(=O)Sc1ccccc1C(=O)NCCC(N)=O [Compound 113] | 2.84 |
| NS(=O)(=O)c1ccc(CNC(=O)c2ccccc2SC(=O)OCCCCCl)cc1 [Compound 84] | 3.37 |

Please give the measured log10 of EC50 for this compound: NS(=O)(=O)c1ccc(CNC(=O)c2ccccc2SC(=O)Oc2ccc([N+](=O)[O-])cc2)cc1 [Compound 78]
3.20

If you can, please state the reported log10 of EC50 value of CC(C)COC(=O)Sc1ccc(Cl)cc1C(=O)NCCC(N)=O [Compound 141] .
3.05

I have this compound here, CCCNC(=O)Sc1ccccc1C(=O)N[C@@H](C)C(N)=O [Compound 96] , and I need its recorded log10 of EC50.
3.12

---

This listing pairs molecules with measured IC50 at 7 days.
Experiment: XTT assay, cytotoxicity (cellular growth inhibition) in CEM-SS cells
Format: cell-based
Conditions: human

Worked examples, 2 molecules total:
| Molecule | IC50 at 7 days |
| --- | --- |
| NC(=O)CCNC(=O)c1ccccc1SC(=O)OCCBr [Compound 102] | > 316 µM |
| COc1cc(C(=O)Sc2ccccc2C(=O)NCCC(N)=O)cc(OC)c1OC [Compound 10] | > 200 µM |

Next molecule, IC50 at 7 days to be filled in.
Suppose we examine the molecule NC(=O)CNC(=O)c1ccccc1SC(=O)OCCBr [Compound 101] ; what IC50 at 7 days value has been reported?
> 316 µM

---

Test system: HIV-1RF
Assay: XTT cytoprotection assay, CEM-SS cells infected with HIV-1RF
Assay type: cell-based
Details: Human immunodeficiency virus 1, 168 h, read-out: EC50 (50% cytoprotection); HIV-1RF, CEM-SS cells, seven days, XTT
Protocol: One exemplary means to determine antiviral activity is with CEM-SS cells and virus (e.g., HIV-1RF) (MOI=0.01) using the XTT (2,3-bis[2-methoxy-4-nitro-5-sulfophenyl]-5-[(phenylamino)carbonyl]-2H-tetrazolium hydroxide) cytoprotection assay, as described by Rice (1993) PNAS 90:9721-9724, and Rice (1997) Antimicrob. Agents Chemother. […] The cell death is measured by XTT dye reduction. […]
Property name: log10 EC50 (log10 of the value in µM)
Values are log10 of EC50 in µM.

| Item smiles | log10 EC50 |
| --- | --- |
| C[C@@H](NC(=O)c1ccccc1SC(=O)OCCBr)C(N)=O | 0.52 |
| NC(=O)CCNC(=O)c1ccccc1SC(=O)OCCBr | 0.72 |
| CCCCNC(=O)Sc1ccccc1C(=O)N[C@H](C)C(N)=O | -0.29 |

Name the reported log10 EC50 value associated with the molecule "CCCCNC(=O)Sc1ccccc1C(=O)NCCC(N)=O"
-0.28

Looking for the measured log10 EC50 of "CC(C)(C)NC(=O)Sc1ccc(Cl)cc1C(=O)NCCC(N)=O" , can you help?
0.20

What value of log10 EC50 has been recorded for this entry: "COc1ccc(C(=O)Sc2ccccc2C(=O)NCCC(N)=O)cc1OC"
0.84
